# credit: PubChem BioAssay (NCI)

# System: RPMI-8226 leukemia
# ASSAY_EXPLANATION: NCI tumour cell line growth inhibition, 48 h; in the data active means GI50 below about 0.43 µM; inactive means the rest
Just give me one of these, please: active, inactive

Worked cases, answers included:
COc1ccc(-c2nn(-c3ccc(NC(=O)c4ccc(Cl)c(C(F)(F)F)c4)cc3)cc2-c2ccncc2)cc1Cl: active
CCN(CC)C(=O)CC1=C(C)/C(=C/c2[nH]c(-c3ccc[nH]3)cc2OC)N=C1C: active
COC1C(O)C(C)OC(OC2C(Oc3cccc4c(O)c5c(=O)oc6ccc(C)c7c(=O)oc(c34)c5c67)OC(C)C3O[C@H](c4ccccc4)OC32)C1O (some centres undefined): active

Dear all, I need the recorded test outcome for COc1ccc(C[n+]2c3ccccc3n3c4ccc(N)cc4ccc32)c(OC)c1OC , thank you.
inactive
